Measured values drawn from ChEMBL document CHEMBL2169867 for this set.

- ASSAY_OVERVIEW: Oral bioavailability in Sprague-Dawley rat at 10 mg/kg
- Assay type: ADME, organism-based
- MEASUREMENT_SETUP: in vivo
ENDPOINT_NAME: bioavailability

[[record]]
chemical_smiles = "Cc1ccccc1[C@H](CC(=O)O)NC(=O)c1cc(=O)n(-c2ccccc2F)[nH]1"
endpoint_name = "bioavailability"
reported_measurement = "< 5%"


###

- ASSAY_OVERVIEW: Solubility of the compound
- Format: physicochemical
ENDPOINT_NAME: solubility

[[record]]
chemical_smiles = "Cc1ccccc1[C@H](CC(=O)O)NC(=O)c1cc(=O)n(-c2ccccc2F)[nH]1"
reported_measurement = "> 180 µg/mL"


###

- ASSAY_OVERVIEW: Cmax in Sprague-Dawley rat heart at 10 mg/kg, po
- Assay type: ADME, organism-based
- Parameters: dose 10 mg/kg, route oral
Collected Cmax values appear next to each entry.
ENDPOINT_NAME: Cmax (ng/mL)

[[record]]
chemical_smiles = "COc1cc(C(=O)N[C@@H](CC(=O)O)c2ccccc2C)nn1-c1ccccc1F"
reported_measurement = 3720

[[record]]
chemical_smiles = "Cc1ccccc1[C@H](CC(=O)O)NC(=O)c1cc(OC[C@H](O)C(C)(C)C)n(-c2ccccc2F)n1"
reported_measurement = 426

[[record]]
chemical_smiles = "CC(C)(C)[C@@H](O)COc1cc(C(=O)N[C@@H](CC(=O)O)c2ccc(Cl)cc2Cl)nn1-c1ccccc1F"
reported_measurement = 872


###

- SYSTEM: Neprilysin (Homo sapiens)
- Sequence (P08473 whole entry): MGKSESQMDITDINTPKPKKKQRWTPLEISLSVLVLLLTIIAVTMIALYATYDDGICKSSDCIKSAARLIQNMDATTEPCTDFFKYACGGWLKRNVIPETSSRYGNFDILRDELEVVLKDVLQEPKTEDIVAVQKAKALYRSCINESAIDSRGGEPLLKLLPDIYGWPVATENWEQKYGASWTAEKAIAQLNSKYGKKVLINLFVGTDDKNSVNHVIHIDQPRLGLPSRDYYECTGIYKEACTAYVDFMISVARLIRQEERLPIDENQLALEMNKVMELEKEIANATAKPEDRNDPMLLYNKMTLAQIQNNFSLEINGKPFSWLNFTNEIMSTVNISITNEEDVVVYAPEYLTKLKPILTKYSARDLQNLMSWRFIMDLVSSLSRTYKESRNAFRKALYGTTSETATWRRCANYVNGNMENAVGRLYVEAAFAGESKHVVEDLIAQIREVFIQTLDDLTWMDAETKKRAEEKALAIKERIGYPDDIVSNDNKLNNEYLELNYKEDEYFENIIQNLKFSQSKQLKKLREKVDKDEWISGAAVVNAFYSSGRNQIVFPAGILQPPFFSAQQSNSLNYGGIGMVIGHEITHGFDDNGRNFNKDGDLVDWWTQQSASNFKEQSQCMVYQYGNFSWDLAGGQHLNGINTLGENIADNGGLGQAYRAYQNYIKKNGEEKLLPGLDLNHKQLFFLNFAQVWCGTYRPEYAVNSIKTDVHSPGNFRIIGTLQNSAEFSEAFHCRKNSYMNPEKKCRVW
- ASSAY_OVERVIEW: Inhibition of human recombinant NEP using Mca-RPPGFSAFK(Dnp)-OH as substrate incubated for 15 mins prior to substrate addition measured after 20 to 30 mins by fluorimetric analysis
ENDPOINT_NAME: IC50 (nM)

[[record]]
compound = "O=C(O)CC(NC(=O)c1cc(=O)n(-c2ccccc2)[nH]1)c1cccc(Cl)c1Cl (racemic)"
result_modifier = "<"
reported_measurement = 60

[[record]]
compound = "CC(C)(C)[C@@H](O)COc1cc(C(=O)N[C@@H](CC(=O)O)c2ccc(Cl)cc2Cl)nn1-c1ccccc1F"
result_modifier = ">"
reported_measurement = 1000

[[record]]
compound = "Cc1ccccc1[C@H](CC(=O)O)NC(=O)c1cc(OC[C@H](O)C(C)(C)C)n(-c2ccccc2F)n1"
result_modifier = ">"
reported_measurement = 1000

[[record]]
compound = "COc1cc(C(=O)N[C@@H](CC(=O)O)c2ccccc2C)nn1-c1ccccc1F"
result_modifier = "="
reported_measurement = 1900

[[record]]
compound = "O=C(O)CC(NC(=O)c1cc(=O)n(-c2ccc(Cl)cc2)[nH]1)c1cc(Cl)ccc1Cl (racemic)"
result_modifier = "="
reported_measurement = 300

[[record]]
compound = "Cc1ccccc1[C@H](CC(=O)O)NC(=O)c1cc(OCC2CC2)n(-c2ccccc2F)n1"
result_modifier = "="
reported_measurement = 27000


###

Collected pIC50 values appear next to each entry.
- SYSTEM: Cathepsin A (Homo sapiens)
- ASSAY_OVERVIEW: Inhibition of cathepsin A
pIC50: −log10 of the molar value.
ENDPOINT_NAME: pIC50

[[record]]
chemical_smiles = "CCOc1cc(C(=O)N[C@@H](CC(=O)O)c2ccccc2C)nn1-c1ccccc1F"
system = "Cathepsin A (Homo sapiens)"
reported_measurement = 7.82

[[record]]
chemical_smiles = "COc1cc(C(=O)N[C@@H](CC(=O)O)c2ccccc2C)nn1-c1ccccc1F"
system = "Cathepsin A (Homo sapiens)"
reported_measurement = 7.59

[[record]]
chemical_smiles = "Cc1ccccc1[C@H](CC(=O)O)NC(=O)c1cc(OCC2CC2)n(-c2ccccc2F)n1"
system = "Cathepsin A (Homo sapiens)"
reported_measurement = 7.82

